Tested on: HCC1937
Test: normalised viability (% of control), CellTiter-Blue; higher = more viable cells (about 100 = DMSO control)
Settings: 10 nM; incubation time: 72 h
parameter-measured: normalised viability (%)
# output: bare number, implied unit %

# annotated cases, reported normalised viability shown
compound="C=CC(=O)Nc1cc2c(Nc3ccc(F)c(Cl)c3)ncnc2cc1OCCCN1CCOCC1 [Canertinib]" parameter_measured="normalised viability" reading=62.8
compound="Oc1ncc(N(CCCl)CCCl)c(O)n1 [Uracil mustard]" parameter_measured="normalised viability" reading=143
compound="CCN(CC)CCCC(C)Nc1c2ccc(Cl)cc2nc2ccc(OC)cc12 (stereo not given) [Mepacrine]" parameter_measured="normalised viability" reading=108

Req: Look up normalised viability: O=C(O)C1(C(=O)O)CCC1.[NH2-].[NH2-].[Pt+2] [Carboplatin]
Resp: 82.3

Req: Same for CC[C@H](Nc1ncnc2[nH]cnc12)c1nc2cccc(F)c2c(=O)n1-c1ccccc1 [CAL-101]
Resp: 106
